Source: patent US20110312945A1

- system_under_test: CRTH2 (Homo sapiens)
- Construct: polymorphonuclear cells (0.5 ml; 10^6/ml cells) in PBS containing 0.9 mM CaCl2 and 0.5 mM MgCl2; endogenous in cells; host or cells: polymorphonuclear cells (eosinophils gated by flow cytometry)
- Sequence (Q9Y5Y4 whole entry): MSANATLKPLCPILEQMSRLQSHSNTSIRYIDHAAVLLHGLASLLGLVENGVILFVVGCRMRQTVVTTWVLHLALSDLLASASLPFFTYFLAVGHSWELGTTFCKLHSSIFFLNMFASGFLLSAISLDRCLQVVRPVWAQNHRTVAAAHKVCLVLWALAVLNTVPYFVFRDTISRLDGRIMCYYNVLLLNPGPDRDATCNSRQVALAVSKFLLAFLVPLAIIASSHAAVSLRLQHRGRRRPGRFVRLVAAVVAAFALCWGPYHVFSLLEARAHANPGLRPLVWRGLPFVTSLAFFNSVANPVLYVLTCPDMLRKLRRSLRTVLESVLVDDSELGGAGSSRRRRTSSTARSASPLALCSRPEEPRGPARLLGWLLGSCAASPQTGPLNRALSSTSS
- assay_comment: DPBS CD11b Antagonist Assay
- Format: cell-based
- test_conditions: polymorphonuclear cells in PBS, eosinophil CD11b expression, challenge with 15R-Methyl-PGD2 (10 nM)
# IC50 per entry

| compound | IC50 |
| --- | --- |
| Cc1c(Cc2ccc(S(=O)(=O)N3CCCC3)cc2)c2c(n1CC(=O)O)CCCC2 [Example I-1] | < 5 nM |
| Cc1c(C(O)c2ccccc2S(=O)(=O)N2CCCC2)c2c(n1CC(=O)O)CC(C)(C)CC2=O (stereo not drawn) [Example I-50] | > 500 nM |

Proceed to the following item.
Which IC50 reading was recorded for the compound Cc1c(Sc2ccc(S(=O)(=O)N3CCCC3)cc2)c2c(n1CC(=O)O)CCC(C)(C)C2 [Example I-38] ?
< 5 nM
